The following binders are shown together with reported Mac AVB6 GeoMean values.
- experimental-system: T1, cynomolgus αVβ6 on cells (cynomolgus)
- T1 construct: whole, on cells; also called macaque αVβ6; Mac AVB6
- experiment-notes: FACS, supernatant, HEK-293 cells transfected with cynomolgus αV and β6
# answer = number (no unit)

Please review the entries below; each comes with its answer.
binder	Mac AVB6 GeoMean
sc 161 (antibody, V domains shown, Fully human XenoMouse mAb) VH: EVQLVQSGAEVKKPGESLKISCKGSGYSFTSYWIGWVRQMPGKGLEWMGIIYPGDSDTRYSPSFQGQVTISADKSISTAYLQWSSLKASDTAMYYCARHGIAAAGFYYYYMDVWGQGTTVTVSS VL: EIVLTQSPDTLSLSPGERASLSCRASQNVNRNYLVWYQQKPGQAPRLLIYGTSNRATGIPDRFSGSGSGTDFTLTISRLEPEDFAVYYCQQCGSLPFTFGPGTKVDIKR	33
sc 188 (antibody, V domains shown, Fully human XenoMouse mAb; Has a glycosylation site (NLT) in heavy chain FR3) VH: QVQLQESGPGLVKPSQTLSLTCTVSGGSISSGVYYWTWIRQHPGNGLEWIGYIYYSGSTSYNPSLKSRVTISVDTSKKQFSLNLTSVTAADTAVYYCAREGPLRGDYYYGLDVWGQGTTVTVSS VL: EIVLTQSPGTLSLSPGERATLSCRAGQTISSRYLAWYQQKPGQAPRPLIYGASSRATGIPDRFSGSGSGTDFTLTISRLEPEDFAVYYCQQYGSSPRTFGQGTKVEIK	23.9

Query sc 264 (antibody, V domains shown, Fully human XenoMouse mAb; Has RGD in heavy chain CDR3) VH: QVQLQESGPGLVKPSQTLSLTCTVSGGSISSGGYYWSWIRQHPGKGLEWIGYIYYSGRTYNNPSLKSRVTISVDTSKNQFSLKLSSVTAADTAVYYCARVATGRGDYHFYAMDVWGQGTTVTVSS VL: SYELTQPSSVSVSPGQTARITCSGDVLAKKSARWFHQKPGQAPVLVIYKDSERPSGIPERFSGSSSGTTVTLTISGAQVEDEAAYYCYSAADNNLVFGGGTKLTVL yields Mac AVB6 GeoMean of 66.4

Data provenance is patent US20150166663A1.
